# Experimental System: JMJD2E (Homo sapiens, UniProt B2RXH2)
# Sequence (B2RXH2 1-337): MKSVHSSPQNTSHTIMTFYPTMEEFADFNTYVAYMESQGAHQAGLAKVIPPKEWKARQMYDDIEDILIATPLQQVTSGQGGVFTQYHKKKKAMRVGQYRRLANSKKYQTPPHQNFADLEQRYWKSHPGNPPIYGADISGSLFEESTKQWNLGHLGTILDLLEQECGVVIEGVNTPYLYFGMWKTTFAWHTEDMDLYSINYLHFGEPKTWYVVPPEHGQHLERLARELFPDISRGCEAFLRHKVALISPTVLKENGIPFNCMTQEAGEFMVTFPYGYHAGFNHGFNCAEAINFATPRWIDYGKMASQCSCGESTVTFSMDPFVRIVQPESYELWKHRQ
# Assay Overview: MALDI-TOF MS demethylation assay, JMJD2E
# Conditions: Table S1; span of the fitted curve, 2 µM JMJD2E
Reported Endpoint: MALDI-TOF Data: Span

>  <Molecule>
O=c1c(O)c(-c2cc(O)c(O)c(O)c2)oc2cc(O)cc(O)c12

>  <Reported Endpoint>
MALDI-TOF Data: Span

>  <Reading>
95.03

$$$$
>  <Molecule>
CC1(C)CCC2=C(O1)c1ccccc1C(=O)C2=O

>  <Reported Endpoint>
MALDI-TOF Data: Span

>  <Reading>
91.75

$$$$
>  <Molecule>
COc1cccc(/C=N/NC(=O)CNC(=O)COc2cccc(C)c2)c1O

>  <Reported Endpoint>
MALDI-TOF Data: Span

>  <Reading>
89.52

$$$$
>  <Molecule>
c1cnc2c(c1)ccc1cccnc12

>  <Reported Endpoint>
MALDI-TOF Data: Span

>  <Reading>
93.01

$$$$
>  <Molecule>
O=c1cc(-c2ccccc2)oc2cc(O)c(O)c(O)c12

>  <Reported Endpoint>
MALDI-TOF Data: Span

>  <Reading>
89.05

$$$$
>  <Molecule>
Oc1ccc(NCc2ccccc2OCc2ccccc2F)cc1

>  <Reported Endpoint>
MALDI-TOF Data: Span

>  <Reading>
3.087

$$$$
>  <Molecule>
O=c1nc(N/N=C/c2ccccn2)cn[nH]1

>  <Reported Endpoint>
MALDI-TOF Data: Span

>  <Reading>
97.61

$$$$
>  <Molecule>
Nc1ccc2nc3c(=O)n(CCc4ccccc4)c(=O)[nH]c3nc2c1

>  <Reported Endpoint>
MALDI-TOF Data: Span

>  <Reading>
51.81

$$$$
>  <Molecule>
Br.Oc1ccc(C2CNCCc3c2cc(O)c(O)c3Cl)cc1 (stereo not shown)

>  <Reported Endpoint>
MALDI-TOF Data: Span

>  <Reading>
93.35

$$$$
>  <Molecule>
O=c1c2ccccc2sn1-c1nccs1

>  <Reported Endpoint>
MALDI-TOF Data: Span

>  <Reading>
82.19

$$$$
>  <Molecule>
C=CCn1c(SCC(=O)c2ccc(O)c(O)c2)nnc1-c1cccnc1

>  <Reported Endpoint>
MALDI-TOF Data: Span

>  <Reading>
91.73

$$$$
>  <Molecule>
CN(C)C1C(=O)C(C(N)=O)=C(O)[C@@]2(O)C(=O)C3=C(O)c4c(O)cccc4[C@@](C)(O)C3[C@H](O)C12 (stereo partly shown)

>  <Reported Endpoint>
MALDI-TOF Data: Span

>  <Reading>
94.16

$$$$
>  <Molecule>
COc1ccc(/C=C/C(=O)NC(=S)NNC(=O)c2cnccn2)cc1

>  <Reported Endpoint>
MALDI-TOF Data: Span

>  <Reading>
94.6

$$$$
>  <Molecule>
C[C@@](Cc1ccc(O)c(O)c1)(NN)C(=O)O

>  <Reported Endpoint>
MALDI-TOF Data: Span

>  <Reading>
95.69

$$$$
>  <Molecule>
COc1cccc(/C=N/NC(=O)CNC(=O)CCc2ccccc2)c1O

>  <Reported Endpoint>
MALDI-TOF Data: Span

>  <Reading>
88.08

$$$$
>  <Molecule>
CN1CCN(Cc2cc(COCc3ccccc3)c3cccnc3c2O)CC1

>  <Reported Endpoint>
MALDI-TOF Data: Span

>  <Reading>
96.1

$$$$

###

# Experimental System: JMJD2E (Homo sapiens, UniProt B2RXH2)
# Assay Overview: JMJD2E FDH-coupled assay under low and high iron conditions (iron chelation profile)
# Type: biochemical
# Design: The catalytic domain of human JMJD2E (residues 1–337); His6 (N); made in house; host or cells: E. coli
# Conditions: Table S1; low iron 2.5 µM FAS; unit not in table, from Figure 2; read-out: qHTS Data: jmjd2e fas2.5um IC50
Reported values of log10 IC50 for individual entries
Reported Endpoint: log10 IC50 (log10 of the value in µM)

>  <Compound>
COc1ccc(/C=C/C(=O)NC(=S)NNC(=O)c2cnccn2)cc1

>  <Experimental System>
JMJD2E (Homo sapiens, UniProt B2RXH2)

>  <log10 IC50>
1.00

$$$$
>  <Compound>
Cc1ccnc(NC(c2cccnc2)c2ccc3cccnc3c2O)c1 (centres unmarked)

>  <Experimental System>
JMJD2E (Homo sapiens, UniProt B2RXH2)

>  <log10 IC50>
1.05

$$$$
>  <Compound>
COc1cccc(/C=N/NC(=O)CNC(=O)CCc2ccccc2)c1O

>  <Experimental System>
JMJD2E (Homo sapiens, UniProt B2RXH2)

>  <log10 IC50>
0.85

$$$$
>  <Compound>
CC(C)C1C(=O)C(C(N)=O)=C(O)[C@@]2(O)C(=O)C3=C(O)c4c(O)ccc(N(C)C)c4C[C@H]3C[C@@H]12.Cl (some centres unmarked)

>  <Experimental System>
JMJD2E (Homo sapiens, UniProt B2RXH2)

>  <log10 IC50>
1.10

$$$$
>  <Compound>
O=C(CSc1ncn[nH]1)CSc1ncn[nH]1

>  <Experimental System>
JMJD2E (Homo sapiens, UniProt B2RXH2)

>  <log10 IC50>
0.80

$$$$
>  <Compound>
CCN1/C(=C\c2ccc3ccccc3[n+]2CC)Sc2cc(C)ccc21.[I-]

>  <Experimental System>
JMJD2E (Homo sapiens, UniProt B2RXH2)

>  <log10 IC50>
1.25

$$$$
>  <Compound>
NCC(O)c1ccc(O)c(O)c1.O=C(O)C(O)C(O)C(=O)O (centres unmarked)

>  <Experimental System>
JMJD2E (Homo sapiens, UniProt B2RXH2)

>  <log10 IC50>
0.65

$$$$
>  <Compound>
CN(C)[C@H]1C(=O)C(C(=O)NCN[C@@H](CCCCN)C(=O)O)=C(O)[C@]2(O)C(=O)C3=C(O)c4c(O)cccc4[C@@](C)(O)[C@H]3C[C@@H]12

>  <Experimental System>
JMJD2E (Homo sapiens, UniProt B2RXH2)

>  <log10 IC50>
1.15

$$$$
>  <Compound>
O=C(NC(=S)NNC(=O)c1ccccc1O)c1ccco1

>  <Experimental System>
JMJD2E (Homo sapiens, UniProt B2RXH2)

>  <log10 IC50>
0.55

$$$$
>  <Compound>
Cc1cccc(OCC(=O)NCC(=O)N/N=C/c2ccc(O)cc2O)c1

>  <Experimental System>
JMJD2E (Homo sapiens, UniProt B2RXH2)

>  <log10 IC50>
0.65

$$$$
>  <Compound>
Cc1ccc(C)c(S(=O)(=O)N2CCN(Cc3ccc(O)c4ncccc34)CC2)c1

>  <Experimental System>
JMJD2E (Homo sapiens, UniProt B2RXH2)

>  <log10 IC50>
1.00

$$$$
>  <Compound>
O=C(CCc1ccccc1)NCC(=O)N/N=C/c1ccc(O)cc1O

>  <Experimental System>
JMJD2E (Homo sapiens, UniProt B2RXH2)

>  <log10 IC50>
0.65

$$$$
>  <Compound>
C(=N\Nc1nc(-c2ccccn2)nc2ccccc12)/c1ccccc1

>  <Experimental System>
JMJD2E (Homo sapiens, UniProt B2RXH2)

>  <log10 IC50>
1.35

$$$$
>  <Compound>
O=[N+]([O-])c1ccc(O)c(/C=N/Nc2ccc(Cl)nn2)c1

>  <Experimental System>
JMJD2E (Homo sapiens, UniProt B2RXH2)

>  <log10 IC50>
0.75

$$$$
>  <Compound>
CC(C)c1ccc(N2C(=O)CC(Sc3ncn[nH]3)C2=O)cc1 (centres unmarked)

>  <Experimental System>
JMJD2E (Homo sapiens, UniProt B2RXH2)

>  <log10 IC50>
0.40

$$$$
>  <Compound>
NC(Cc1cc(O)c(O)cc1O)C(=O)O (centres unmarked)

>  <Experimental System>
JMJD2E (Homo sapiens, UniProt B2RXH2)

>  <log10 IC50>
0.90

$$$$
>  <Compound>
CNC[C@H](O)c1ccc(O)c(O)c1

>  <Experimental System>
JMJD2E (Homo sapiens, UniProt B2RXH2)

>  <log10 IC50>
0.70

$$$$
>  <Compound>
O=C(OCC1OC(OC(=O)c2cc(O)c(O)c(OC(=O)c3cc(O)c(O)c(O)c3)c2)[C@@H](OC(=O)c2cc(O)c(O)c(OC(=O)c3cc(O)c(O)c(O)c3)c2)C(OC(=O)c2cc(O)c(O)c(OC(=O)c3cc(O)c(O)c(O)c3)c2)C1OC(=O)c1cc(O)c(O)c(OC(=O)c2cc(O)c(O)c(O)c2)c1)c1cc(O)c(O)c(OC(=O)c2cc(O)c(O)c(O)c2)c1 (some centres unmarked)

>  <Experimental System>
JMJD2E (Homo sapiens, UniProt B2RXH2)

>  <log10 IC50>
-0.80

$$$$
>  <Compound>
c1cnc2c(c1)ccc1cccnc12

>  <Experimental System>
JMJD2E (Homo sapiens, UniProt B2RXH2)

>  <log10 IC50>
1.00

$$$$
>  <Compound>
O=C(CC1Sc2ncnn2C1=O)Nc1ccc(Cl)cc1 (centres unmarked)

>  <Experimental System>
JMJD2E (Homo sapiens, UniProt B2RXH2)

>  <log10 IC50>
0.30

$$$$
>  <Compound>
O=c1cc(-c2ccccc2)oc2cc(O)c(O)c(O)c12

>  <Experimental System>
JMJD2E (Homo sapiens, UniProt B2RXH2)

>  <log10 IC50>
0.35

$$$$
>  <Compound>
COc1cccc(O)c1O

>  <Experimental System>
JMJD2E (Homo sapiens, UniProt B2RXH2)

>  <log10 IC50>
0.65

$$$$
>  <Compound>
O=C(OC1Cc2c(O)cc(O)cc2OC1c1cc(O)c(O)c(O)c1)c1cc(O)c(O)c(O)c1 (centres unmarked)

>  <Experimental System>
JMJD2E (Homo sapiens, UniProt B2RXH2)

>  <log10 IC50>
0.15

$$$$
>  <Compound>
O=C(CC1Sc2ncnn2C1=O)Nc1ccc(Br)cc1 (centres unmarked)

>  <Experimental System>
JMJD2E (Homo sapiens, UniProt B2RXH2)

>  <log10 IC50>
0.30

$$$$
>  <Compound>
O=c1c(-c2cc(O)c(O)c(O)c2)coc2cc(O)c(O)c(O)c12

>  <Experimental System>
JMJD2E (Homo sapiens, UniProt B2RXH2)

>  <log10 IC50>
0.00

$$$$
>  <Compound>
O=C1c2ccc(O)c(O)c2C(=O)c2c(O)ccc(O)c21

>  <Experimental System>
JMJD2E (Homo sapiens, UniProt B2RXH2)

>  <log10 IC50>
0.40

$$$$
>  <Compound>
O=c1cnnc(N/N=C/c2ccccn2)[nH]1

>  <Experimental System>
JMJD2E (Homo sapiens, UniProt B2RXH2)

>  <log10 IC50>
0.80

$$$$
>  <Compound>
COc1ccc(N2C(=O)CC(Sc3ncn[nH]3)C2=O)c(OC)c1 (centres unmarked)

>  <Experimental System>
JMJD2E (Homo sapiens, UniProt B2RXH2)

>  <log10 IC50>
0.15

$$$$
>  <Compound>
CN(C)C1C(=O)C(C(N)=O)=C(O)[C@@]2(O)C(=O)C3=C(O)c4c(O)cccc4[C@@](C)(O)C3[C@H](O)C12 (some centres unmarked)

>  <Experimental System>
JMJD2E (Homo sapiens, UniProt B2RXH2)

>  <log10 IC50>
1.15

$$$$
>  <Compound>
O=C(O)c1cccnc1C(=O)O

>  <Experimental System>
JMJD2E (Homo sapiens, UniProt B2RXH2)

>  <log10 IC50>
0.90

$$$$
>  <Compound>
COC(=O)c1ccc(=O)c2nc3/c(=C/O)c(O)cc(=O)c3[nH]c12

>  <Experimental System>
JMJD2E (Homo sapiens, UniProt B2RXH2)

>  <log10 IC50>
0.35

$$$$
>  <Compound>
Nc1ccc2nc3c(=O)n(CCc4ccccc4)c(=O)[nH]c3nc2c1

>  <Experimental System>
JMJD2E (Homo sapiens, UniProt B2RXH2)

>  <log10 IC50>
0.85

$$$$

This collection of values is drawn from paper PMC2990756.
